MEASUREMENT DESCRIPTION: H1N1 influenza NS1A inhibitors, functional cell based assay (AID 504329)
CONDITIONS: percent inhibition, at 12.5 µM, active compounds read high
The whole screen tested about 340,000 compounds, of which about 1,000 (0.29%) were called active. The list is a sample of the results. Results with a measured potency or affinity are listed apart.
The entries below are paired with their reported inhibition.
Express the result in % but write the number alone.

Past entries and their recorded results:
[[record]]
compound = "Cc1cc2nc(-c3ccc[nH]c3=O)n(Cc3ccc(F)cc3)c2cc1C"
property = "inhibition"
result_unit = "%"
value = 1.86

[[record]]
compound = "CN1c2ccccc2N(C)C1(C)c1ccccc1"
property = "inhibition"
result_unit = "%"
value = 14.4

[[record]]
compound = "CCOc1cccc(/C=N/N2C(C)CCCC2C)c1O (configuration not stated)"
property = "inhibition"
result_unit = "%"
value = -10.1

[[record]]
compound = "O=C1CSC(=S)N1/N=C/c1ccc(O)c(O)c1O"
property = "inhibition"
result_unit = "%"
value = -1.09

[[record]]
compound = "S=C(Nc1ccccc1)c1ccccn1"
property = "inhibition"
result_unit = "%"
value = 3.81


Look at this compound and give its reported inhibition. `Cc1[nH]c2ccccc2c1/C=N/NC(N)=S`
5.2

Consider the compound `Cc1ccccc1/C=N/N1C(=O)CSC1=S` and give its measured inhibition.
-0.54
